Origin of the recorded values: patent US20110112308A1

# procedureDetails: Solution stability (HPLC)
# Format: physicochemical
# statedConditions: 2 mg/mL in methanol, 1 week at 50° C.
Exercise: state measured % DP (total degradation products) for each of the molecules provided.
Answers are plain numbers, in % area.

Here is how some molecules turned out for % DP (total degradation products).
CS(=O)(=O)O.Cc1[nH]c2ccccc2c1CCNCc1ccc(/C=C/C(=O)NO)cc1 [Mesylate] | 0.62
CC(O)C(=O)O.Cc1[nH]c2ccccc2c1CCNCc1ccc(/C=C/C(=O)NO)cc1.O (racemic) [Monohydrate DL-lactate salt] | 0.71
Cc1[nH]c2ccccc2c1CCNCc1ccc(/C=C/C(=O)NO)cc1.O=C(O)/C=C\C(=O)O [Maleate] | 0.83

Kindly consider the entry below.
*Q* Bench note: what % DP (total degradation products) did Cc1[nH]c2ccccc2c1CCNCc1ccc(/C=C/C(=O)NO)cc1.Cl [HCl] show?
*A* 0.38
